# Growth Rate annotations
- Test system: HEK-293T
- protocolDetails: Incucyte cell viability with HEK293T; further: unitless GR value; below 1 slowed growth and below 0 cell loss
- Assay type: toxicity, cell-based
- particulars: human, 24 h, 10 µM, compound concentration 10 uM, replicate number 2
The answer should be a number; do not append a unit.

{"columns": ["compound", "endpointResult"],
 "data": [
  ["Cn1nc(C(=O)NCc2ccc(C(=O)O)cc2)cc1-c1ccc2[nH]ccc2c1 [BI 4395]", 0.56],
  ["CNc1nc(-c2ccc3c(N)n[nH]c3c2)cc(N2C[C@@H](C(=O)NC3CCCCC3)CC[C@H]2C)n1", 0.55],
  ["NC(=O)C1CCCc2c1[nH]c1ccc(Cl)cc21 (stereo not given)", 0.79],
  ["COc1ccc(S(=O)(=O)N2CCOCC2)cc1Nc1ccc2c(n1)N(C1CCOCC1)[C@H](C)C(=O)N2C", 0.81]
]}

Attention now shifts to the item below.
Inquiry: Any idea what Growth Rate was measured for CC(C)CC(=O)Nc1cncc(-c2ccc3[nH]nc(-c4nc5c(-c6cccc(F)c6)cncc5[nH]4)c3c2)c1 [LORECIVIVINT] ?
Reply text: -0.44

* * *

// reported Growth Rate for each item listed
- System: HEK-293T
- protocolDetails: Incucyte cell viability with HEK293T; further: unitless GR value; below 1 slowed growth and below 0 cell loss
- Assay type: toxicity, cell-based
- particulars: human, 24 h, 10 µM, compound concentration 10 uM, replicate number 1

Answered cases to consult:
{"columns": ["compound", "Growth Rate"],
 "data": [
  ["CCCCC/C=C/C=C1/C(=O)C=C[C@@H]1C/C=C\\CCCC(=O)O", 0.86],
  ["Cc1cc(OC2CCS(=O)(=O)CC2)cc(C)c1-c1cccc(COc2ccc(CCC(=O)O)c(F)c2)c1", 0.94],
  ["CC(C)CC(=O)Nc1cncc(-c2ccc3[nH]nc(-c4nc5c(-c6cccc(F)c6)cncc5[nH]4)c3c2)c1", -0.41],
  ["CCOC(=O)c1ncn2c1[C@@H]1CCCN1C(=O)c1cc(OC)ccc1-2", 0.82],
  ["COc1cc(-c2cn(C)c(=O)c3cnccc23)cc(OC)c1CN(C)C", 0.92]
]}

Inquiry: Requested read-out: Growth Rate. Entry: Cc1c(-c2cc(-c3ccccc3Cl)no2)cnn1C1CCNCC1.Cl
Reply text: -0.68

Inquiry: # get_value(readout='Growth Rate', item= CNC(=O)c1ccc2c(c1)NC(=O)/C2=C(\Nc1ccc(CN2CCCCC2)cc1)c1ccccc1.Cl.O )
Reply text: 1

Inquiry: For the compound shown here, CNc1nc(-c2cc(C(=O)N3CCN(Cc4ccc(Cl)cc4)CC3)c(Cl)cn2)cs1 , give the reported Growth Rate.
Reply text: 0.69

Inquiry: Can you share its Growth Rate? I mean this compound: NC(=O)c1cc2c(-c3ccc(C(=O)NCc4ccnc(Cl)c4)s3)cccc2s1
Reply text: -0.23

Inquiry: Recorded Growth Rate of O=C(Nc1ccc(-n2nc(C(F)(F)F)cc2C(F)(F)F)cc1)c1ccncc1F , please.
Reply text: 0.31

Inquiry: Which Growth Rate value belongs to Cc1cc2c(cc(C(=O)N[C@H](CO)c3ccc(S(=O)(=O)CC(=O)O)cc3)n2C)c(Cl)c1Cl ?
Reply text: 0.99

Inquiry: // query Growth Rate value for entry CS(=O)(=O)c1cc(C2(NC(=O)c3cncc4c3cnn4-c3ccc(F)cc3)CC2)ccn1
Reply text: 1

Inquiry: // Growth Rate lookup, key: CC(C)c1cnn2c(NCc3ccccc3)cc(NCCCCCCN)nc12.Cl
Reply text: 0.65

Inquiry: Item COc1cc(Nc2cnc(C#N)c(O[C@H](C)CN(C)C)n2)ncc1-c1cnn(C)c1 has what recorded Growth Rate?
Reply text: -0.06

Inquiry: Which Growth Rate value is on record for COc1ccc2c(O[C@@H]3C[C@H]4C(=O)N[C@]5(C(=O)O)CC5/C=C\CCCCC[C@H](NC(=O)OC5CCCC5)C(=O)N4C3)cc(-c3csc(NC(=O)C(C)C)n3)nc2c1C (stereo partly drawn) ?
Reply text: 0.7

Inquiry: Returns the measured Growth Rate for the input compound. Input: CCNCCNC(=O)c1c(C)[nH]c(/C=C2\C(=O)Nc3ccc(F)cc32)c1C
Reply text: -0.09

Inquiry: What value of measured Growth Rate is listed for COCCNC1CCC(Nc2cc(-c3csc(NCC4(C#N)CCOCC4)n3)c(Cl)cn2)CC1 (stereo not drawn) ?
Reply text: -0.24

Inquiry: Query (compound): COc1ccc(S(=O)(=O)N2CCOCC2)cc1Nc1ccc2c(n1)N(C1CCOCC1)[C@H](C)C(=O)N2C ; field requested: Growth Rate
Reply text: 0.7
